These data points were gathered from the supplement of paper PMC10307832.

Tested on: NCI-H2009
assay procedure: relative viability (nuclei count vs DMSO), 5 days (fraction); higher = more cells survive
applied conditions: first compound 0.02 µM
Quick list: relative viability per entry.
Write no unit; give the number alone.

Solved entries:
| compound | recorded measurement |
| --- | --- |
| CCNC(=O)c1noc(-c2cc(C(C)C)c(O)cc2O)c1-c1ccc(CN2CCOCC2)cc1 [Luminespib] + CC(C)C[C@H](NC(=O)[C@H](Cc1ccccc1)NC(=O)c1cnccn1)B(O)O [Bortezomib] (partner 0.002 µM) | 0.956 |
| CN1CCN(CCOc2cc(OC3CCOCC3)c3c(Nc4c(Cl)ccc5c4OCO5)ncnc3c2)CC1 [Saracatinib] + CC(=O)c1c(C)c2cnc(Nc3ccc(N4CCNCC4)cn3)nc2n(C2CCCC2)c1=O [Palbociclib] (partner 0.5 µM) | 0.261 |

Query: Tell me its relative viability given CN1CCN(CCOc2cc(OC3CCOCC3)c3c(Nc4c(Cl)ccc5c4OCO5)ncnc3c2)CC1 [Saracatinib] + C[C@@H](Oc1cc(-c2cnn(C3CCNCC3)c2)cnc1N)c1c(Cl)ccc(F)c1Cl [Crizotinib] (partner 1 µM) as the entry.
Result: 1.03
